- Assayed system: Muscarinic acetylcholine receptor M3 (Homo sapiens, UniProt P20309)
- Sequence (P20309 whole entry): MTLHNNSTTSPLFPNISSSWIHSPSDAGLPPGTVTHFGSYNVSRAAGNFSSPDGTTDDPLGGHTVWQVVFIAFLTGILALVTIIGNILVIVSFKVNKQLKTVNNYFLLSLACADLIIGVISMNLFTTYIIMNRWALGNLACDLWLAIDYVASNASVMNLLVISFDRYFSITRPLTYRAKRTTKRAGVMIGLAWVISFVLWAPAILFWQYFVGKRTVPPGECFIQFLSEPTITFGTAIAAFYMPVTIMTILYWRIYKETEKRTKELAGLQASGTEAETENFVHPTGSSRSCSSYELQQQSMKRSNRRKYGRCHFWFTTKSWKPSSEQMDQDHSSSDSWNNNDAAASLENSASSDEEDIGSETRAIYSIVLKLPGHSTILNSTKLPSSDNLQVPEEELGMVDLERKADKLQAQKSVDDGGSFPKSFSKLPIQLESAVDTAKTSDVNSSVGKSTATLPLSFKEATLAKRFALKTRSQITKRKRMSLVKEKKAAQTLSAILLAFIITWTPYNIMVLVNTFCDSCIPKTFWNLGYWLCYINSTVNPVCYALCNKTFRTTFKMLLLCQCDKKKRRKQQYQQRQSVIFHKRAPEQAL
- Experimental protocol: Antagonist potency at human muscarinic acetylcholine M3 receptor expressed in CHO cells assessed as inhibition of Ach-induced calcium mobilization by FLIPR analysis relative to control
Parameter measured: pKd
Answers are plain numbers, as −log10 of the molar value.

Example cases with answers are listed next.
[
  {
    "Compound": "C[N+]1(CCO)C2CCC1CC(CC(C#N)(c1ccccc1)c1ccccc1)C2 (stereo not drawn)",
    "Assayed system": "Muscarinic acetylcholine receptor M3 (Homo sapiens, UniProt P20309)",
    "Parameter measured": "pKd",
    "Observed result": 9.80
  },
  {
    "Compound": "C[N+]1(CC2CC2)C2CCC1CC(CC(C#N)(c1ccccc1)c1ccccc1)C2 (stereo not drawn)",
    "Assayed system": "Muscarinic acetylcholine receptor M3 (Homo sapiens, UniProt P20309)",
    "Parameter measured": "pKd",
    "Observed result": 10.30
  }
]

So what's the measured pKd for this one? C=CC[N+]1(C)C2CCC1CC(CC(C#N)(c1ccccc1)c1ccccc1)C2 (stereo not drawn)
8.90
